Known residual activity of a selection of compounds
target-entity: PRKCA (human)
experiment: radiometric filter-binding kinase assay
conditions-used: compound 0.1 µM
endpoint-name: residual activity

CCn1c(-c2nonc2N)nc2cncc(CNC3CCNCC3)c21 :: 84%
COc1ccc(N(C(=O)Nc2c(C)cccc2C)c2cc(Nc3ccc(N4CCN(C)CC4)cc3)ncn2)c(OC)c1 :: 102%
NC(=O)c1cc2c(-c3cccc(-c4ccccc4)c3)cnc(N)c2s1 :: 94%
NC1(c2ccc(-c3nc4ccn5c(=O)[nH]nc5c4cc3-c3ccccc3)cc2)CCC1 :: 97%
Cc1cccc(-c2nn(C(=S)Nc3ccccc3)cc2-c2ccnc3ccccc23)n1 :: 97%

----------
target-entity: PKN2 (human)
experiment: radiometric filter-binding kinase assay
conditions-used: compound 1.0 µM
Known residual activity of a selection of compounds
endpoint-name: residual activity (%)

CCNc1nc(Nc2cc(F)c(C(=O)N3CCOCC3)cc2OC)ncc1C(F)(F)F :: 73
Cc1ccc(Sc2cnc(Nc3cccc(Br)n3)s2)cc1C(=O)N1CCN(C(=O)CN)CC1 :: 78
O=C(N[C@@H](COc1ccc2[nH]c(=O)[nH]c2c1)c1ccccc1)c1cccn(Cc2ccc(F)c(F)c2)c1=O :: 113
Cn1nc(Nc2ccc(F)cc2)c2c(N)ncnc21 :: 103
NC1(c2ccc(-c3nc4ccn5c(=O)[nH]nc5c4cc3-c3ccccc3)cc2)CCC1 :: 96

----------
Test system: AKT2 (human), P31751 [S474D]
Sequence (P31751 whole entry S474D, looked up): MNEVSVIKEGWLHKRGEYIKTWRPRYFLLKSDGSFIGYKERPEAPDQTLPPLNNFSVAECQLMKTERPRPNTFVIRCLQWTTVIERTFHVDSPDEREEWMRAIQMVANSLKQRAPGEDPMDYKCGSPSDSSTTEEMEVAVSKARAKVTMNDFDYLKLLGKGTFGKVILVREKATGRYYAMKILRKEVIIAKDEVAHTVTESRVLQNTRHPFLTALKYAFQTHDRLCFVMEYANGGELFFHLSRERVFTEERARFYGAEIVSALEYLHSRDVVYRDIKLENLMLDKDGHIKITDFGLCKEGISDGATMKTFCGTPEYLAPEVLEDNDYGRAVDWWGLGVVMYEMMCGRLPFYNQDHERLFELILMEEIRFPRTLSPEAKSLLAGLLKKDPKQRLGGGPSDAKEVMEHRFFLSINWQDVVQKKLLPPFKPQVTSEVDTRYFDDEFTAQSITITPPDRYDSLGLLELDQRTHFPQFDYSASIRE
experiment: radiometric filter-binding kinase assay
conditions-used: compound 10.0 µM
endpoint-name: residual activity

N#Cc1c(O)c2c(-c3ccc(-c4ccccc4O)cc3)csc2[nH]c1=O :: 56%
CN1C(=O)[C@@H](Cc2c[nH]c3ccccc23)NC1=S :: 68%
CCCC(CCC)C(=O)O :: 86%
O=C1Nc2nc(-c3c(O)cccc3OCC3CC3)cc(C3CCCNC3)c2CO1 (stereo not given) :: 61%
Cc1ccc(Sc2cnc(Nc3cccc(Br)n3)s2)cc1C(=O)N1CCN(C(=O)CN)CC1 :: 46%
Cn1nc(Nc2ccc(F)cc2)c2c(N)ncnc21 :: 103%
Nc1cccc2c1CN(C1CCC(=O)NC1=O)C2=O (stereo not given) :: 94%
C[C@H]1CCCC(=O)CCC/C=C/c2cc(O)cc(O)c2C(=O)O1 :: 89%
CC1=C(CO)C(=O)O[C@@H]([C@@H](C)[C@H]2CC[C@H]3[C@@H]4C[C@H]5O[C@]56[C@@H](O)C=CC(=O)[C@]6(C)C4CC[C@]23C)C1 (stereo not given in full) :: 10%
NS(=O)(=O)OC[C@@H]1C[C@@H](n2ccc3c(N[C@H]4CCc5ccccc54)ncnc32)C[C@@H]1O :: 88%

----------
target-entity: PHKG1 (human)
experiment: radiometric filter-binding kinase assay
conditions-used: compound 1.0 µM
Known residual activity of a selection of molecules
endpoint-name: residual activity (%)

Oc1ccc(/C=C/c2cc(O)cc(O)c2)cc1 :: 58
O=C(NCCCNc1nc(Nc2cccc(CN3CCOCC3)c2)ncc1C1CC1)C1CCC1 :: 28
NCC(=O)Nc1ccc(-n2nc(C(F)(F)F)cc2-c2ccc3c(ccc4ccccc43)c2)cc1 :: 79
NC(=O)Nc1ccc2c(c1)/C(=C/c1cc(-c3cccnc3)c[nH]1)C(=O)N2 :: 1
NC(=O)c1cc2c(-c3cccc(-c4ccccc4)c3)cnc(N)c2s1 :: 92
O=c1c(O)c(-c2ccc(O)c(O)c2)oc2cc(O)c(O)c(O)c12 :: 98
Cn1c(=O)c2c(ncn2C)n(C)c1=O :: 115
COc1ccc(-n2ncc3cnc(Nc4cc(OC)c(OC)c(OCCCN5CCN(C)CC5)c4)nc32)cc1 :: 12
Cc1cc(SCc2sc(-c3ccc(C(F)(F)F)cc3)nc2C)ccc1OCC(=O)O :: 109
CCc1cncnc1N1CCN(Cc2nc3cc(C(F)(F)F)ccc3[nH]2)CC1 :: 96
CC(C)(C#N)c1ccc(N2C(=O)OCc3cnc4ccc(-c5cnc6ccccc6c5)cc4c32)cc1 :: 97
COc1ccc(N(C(=O)Nc2c(C)cccc2C)c2cc(Nc3ccc(N4CCN(C)CC4)cc3)ncn2)c(OC)c1 :: 107
COc1cc(O)c2c(c1)[C@H]1OC1C[C@H](O)[C@H](O)C(=O)/C=C\C[C@H](C)OC2=O (stereo partly specified) :: 107
O=C(Nc1ccccc1-c1cn2c(CN3CCNCC3)csc2n1)c1cnc2ccccc2n1 :: 53
Cc1ccc(-c2ccc3c(ccc4sc5c(c43)NC[C@@H](C)NC5=O)n2)cn1 :: 91
COc1cc(O)c2c(c1)/C=C/C[C@H](O)[C@H](O)C(=O)/C=C\C[C@H](C)OC2=O :: 89
Cc1cccc(-c2nn(C(=S)Nc3ccccc3)cc2-c2ccnc3ccccc23)n1 :: 112
CCNc1nc(Nc2cc(F)c(C(=O)N3CCOCC3)cc2OC)ncc1C(F)(F)F :: 23
CCCC(CCC)C(=O)O :: 110
CN1C(=O)[C@@H](Cc2c[nH]c3ccccc23)NC1=S :: 103
NC(=O)c1c(NC(=O)C2CC2)sc2c1CCCC2 :: 108
CCn1c(-c2nonc2N)nc2cncc(CNC3CCNCC3)c21 :: 101
O=C(Nc1cccnc1)c1cc(-c2ccnc(F)c2)ccc1OCc1ccccc1 :: 78
NC1(c2ccc(-c3nc4ccn5c(=O)[nH]nc5c4cc3-c3ccccc3)cc2)CCC1 :: 98
Nc1cccc2c1CN(C1CCC(=O)NC1=O)C2=O (stereo unspecified) :: 101
O=C1Nc2nc(-c3c(O)cccc3OCC3CC3)cc(C3CCCNC3)c2CO1 (stereo unspecified) :: 70
Cc1nc(-c2ccc(OCC(C)C)c(C#N)c2)sc1C(=O)O :: 85
FC(F)(F)c1ccc(-c2ccc(Oc3cncc4sc(-c5nn[nH]n5)cc34)cc2)cc1 :: 102
Cn1nc(Nc2ccc(F)cc2)c2c(N)ncnc21 :: 113
CCCCCc1ccc(/C=C/[C@H](O)[C@@H](CO)NC)cc1 :: 86
CC1=C(CO)C(=O)O[C@@H]([C@@H](C)[C@H]2CC[C@H]3[C@@H]4C[C@H]5O[C@]56[C@@H](O)C=CC(=O)[C@]6(C)C4CC[C@]23C)C1 (stereo partly specified) :: 112
CNc1nc(-c2ccc3c(N)n[nH]c3c2)cc(N2C[C@@H](C(=O)NC3CCCCC3)CC[C@H]2C)n1 :: 101
N#Cc1c(C2CCNCC2)cc(-c2c(O)cccc2OCC2CC2)nc1N :: 77
Oc1ccc2ccccc2c1SSc1c(O)ccc2ccccc12 :: 100
C=C1C(=O)OC2C1CC/C(C)=C/CCC1(C)OC21 (stereo unspecified) :: 116
O=C(NOCC(O)CO)c1ccc(F)c(F)c1Nc1ccc(I)cc1Cl (stereo unspecified) :: 94
COc1ccc2c(c1)c1c3c(c4c5ccccc5n(C)c4c1n2CC(O)CN(C)C)C(=O)NC3=O (stereo unspecified) :: 17
C[C@H]1CCCC(=O)CCC/C=C/c2cc(O)cc(O)c2C(=O)O1 :: 102
COc1cc(C(=O)N2CCOCC2)c(F)cc1Nc1ncc(C(F)(F)F)c(NC2CC2)n1 :: 45
C=CC(=O)N1CCC[C@@H](n2nc(-c3ccc(Oc4ccccc4)cc3)c3c(N)ncnc32)C1 :: 104
NC(=O)c1cc(-c2ccnc(NC3CCCCC3)c2)nc(N2CCNCC2)c1 :: 29

----------
target-entity: TEK (human) (UniProt Q02763)
Sequence (Q02763 whole entry, looked up): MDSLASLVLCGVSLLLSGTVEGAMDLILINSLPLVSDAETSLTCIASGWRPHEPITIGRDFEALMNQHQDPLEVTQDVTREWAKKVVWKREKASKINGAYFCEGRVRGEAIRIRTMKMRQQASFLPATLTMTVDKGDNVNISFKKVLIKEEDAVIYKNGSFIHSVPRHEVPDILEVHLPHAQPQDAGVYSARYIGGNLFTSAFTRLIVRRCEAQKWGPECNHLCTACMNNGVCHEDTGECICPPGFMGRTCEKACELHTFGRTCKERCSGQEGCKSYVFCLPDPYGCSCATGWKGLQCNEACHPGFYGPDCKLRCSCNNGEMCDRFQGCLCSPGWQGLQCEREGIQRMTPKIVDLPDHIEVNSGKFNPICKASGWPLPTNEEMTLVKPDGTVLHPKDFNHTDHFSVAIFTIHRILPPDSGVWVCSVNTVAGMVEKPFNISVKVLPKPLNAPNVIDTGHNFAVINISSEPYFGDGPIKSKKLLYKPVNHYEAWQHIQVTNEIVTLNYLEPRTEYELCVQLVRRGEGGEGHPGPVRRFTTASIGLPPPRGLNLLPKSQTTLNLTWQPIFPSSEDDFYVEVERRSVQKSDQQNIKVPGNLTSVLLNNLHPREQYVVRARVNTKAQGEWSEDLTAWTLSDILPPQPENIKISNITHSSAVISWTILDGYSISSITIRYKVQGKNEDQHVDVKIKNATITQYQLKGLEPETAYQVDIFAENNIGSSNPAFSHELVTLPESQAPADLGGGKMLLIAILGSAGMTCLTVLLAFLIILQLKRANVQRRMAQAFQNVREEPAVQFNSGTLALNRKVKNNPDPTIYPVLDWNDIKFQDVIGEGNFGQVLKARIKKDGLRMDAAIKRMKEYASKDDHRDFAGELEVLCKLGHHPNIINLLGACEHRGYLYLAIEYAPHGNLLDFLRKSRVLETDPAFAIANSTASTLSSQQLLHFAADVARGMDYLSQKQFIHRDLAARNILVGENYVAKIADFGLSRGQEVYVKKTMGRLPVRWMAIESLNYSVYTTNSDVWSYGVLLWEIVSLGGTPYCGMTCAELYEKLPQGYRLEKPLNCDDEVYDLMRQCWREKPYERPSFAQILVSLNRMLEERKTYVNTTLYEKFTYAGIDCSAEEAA
experiment: radiometric filter-binding kinase assay
conditions-used: compound 0.1 µM
Known residual activity of a selection of compounds
endpoint-name: residual activity

COc1ccc(-n2ncc3cnc(Nc4cc(OC)c(OC)c(OCCCN5CCN(C)CC5)c4)nc32)cc1 :: 60%
Cc1cc(NC(=O)c2cccc(NC(=O)/C=C/CN(C)C)c2)ccc1Nc1nccc(-c2cccnc2)n1 :: 105%
COc1cc(O)c2c(c1)[C@H]1OC1C[C@H](O)[C@H](O)C(=O)/C=C\C[C@H](C)OC2=O (stereo partly specified) :: 101%
COc1ccc(N(C(=O)Nc2c(C)cccc2C)c2cc(Nc3ccc(N4CCN(C)CC4)cc3)ncn2)c(OC)c1 :: 82%
CNC(=O)C1[C@H]2O[C@@](C)([C@@H]1N)n1c3ccccc3c3c4c(c5c6ccccc6n2c5c31)C(=O)NC4 (stereo partly specified) :: 41%
COc1cc(O)c2c(c1)/C=C/C[C@H](O)[C@H](O)C(=O)/C=C\C[C@H](C)OC2=O :: 103%

----------
System: AKT2 (human), P31751 [S474D]
experiment: radiometric filter-binding kinase assay
conditions-used: compound 10.0 µM
Known residual activity of a selection of compounds
endpoint-name: residual activity (%)

CC(C)C[C@H](NC(=O)CNC(=O)c1cc(Cl)ccc1Cl)B1OC(=O)CC(CC(=O)O)(C(=O)O)O1 (stereo not given in full) :: 82
NC(=O)c1cc2c(-c3cccc(-c4ccccc4)c3)cnc(N)c2s1 :: 98
c1ccc2c(-c3cnn4cc(-c5ccc(N6CCNCC6)cc5)cnc34)ccnc2c1 :: 58
O=C(NOC[C@H](O)CO)c1ccc(F)c(F)c1Nc1ccc(I)cc1Cl :: 82
CCCCCc1ccc(/C=C/[C@H](O)[C@@H](CO)NC)cc1 :: 86
O=C1NC(=S)N[C@@H]1Cc1c[nH]c2ccccc12 :: 97
Oc1ccc2ccccc2c1SSc1c(O)ccc2ccccc12 :: 0
CCc1cncnc1N1CCN(Cc2nc3cc(C(F)(F)F)ccc3[nH]2)CC1 :: 60
N#Cc1c(C2CCNCC2)cc(-c2c(O)cccc2OCC2CC2)nc1N :: 62
C=CC(=O)N1CCC[C@@H](n2nc(-c3ccc(Oc4ccccc4)cc3)c3c(N)ncnc32)C1 :: 71
Cc1nc(-c2ccc(OCC(C)C)c(C#N)c2)sc1C(=O)O :: 108
Oc1ccc(/C=C/c2cc(O)cc(O)c2)cc1 :: 67
COc1ccc2c(c1)c1c3c(c4c5ccccc5n(C)c4c1n2CC(O)CN(C)C)C(=O)NC3=O (stereo not given) :: 13
CC(C)(C#N)c1ccc(N2C(=O)OCc3cnc4ccc(-c5cnc6ccccc6c5)cc4c32)cc1 :: 100
O=c1c(O)c(-c2ccc(O)c(O)c2)oc2cc(O)c(O)c(O)c12 :: 1
Cc1ccc(=O)n(-c2ccccc2)c1 :: 91
O=C(O)c1ccc(-c2c[nH]c3ncc(-c4ccccc4)cc23)cc1C1CCCC1 :: 74
CCNc1nc(Nc2cc(F)c(C(=O)N3CCOCC3)cc2OC)ncc1C(F)(F)F :: 95
O=C(O)c1cc(N=Nc2ccc(S(=O)(=O)Nc3ccccn3)cc2)ccc1O :: 94
NC(=O)c1cc(-c2ccnc(NC3CCCCC3)c2)nc(N2CCNCC2)c1 :: 3
O=C(Nc1ccccc1-c1cn2c(CN3CCNCC3)csc2n1)c1cnc2ccccc2n1 :: 61
O=C(N[C@@H](COc1ccc2[nH]c(=O)[nH]c2c1)c1ccccc1)c1cccn(Cc2ccc(F)c(F)c2)c1=O :: 77
NC1(c2ccc(-c3nc4ccn5c(=O)[nH]nc5c4cc3-c3ccccc3)cc2)CCC1 :: 68
Cc1ccc(-c2ccc3c(ccc4sc5c(c43)NC[C@@H](C)NC5=O)n2)cn1 :: 69
Cc1ccc2c(c1)C(=O)[C@@]1(O)CCN(c3ccccc3)C1=N2 :: 74
